Target: human NMT-1 (Homo sapiens (Human))
Sequence (P30419 whole entry): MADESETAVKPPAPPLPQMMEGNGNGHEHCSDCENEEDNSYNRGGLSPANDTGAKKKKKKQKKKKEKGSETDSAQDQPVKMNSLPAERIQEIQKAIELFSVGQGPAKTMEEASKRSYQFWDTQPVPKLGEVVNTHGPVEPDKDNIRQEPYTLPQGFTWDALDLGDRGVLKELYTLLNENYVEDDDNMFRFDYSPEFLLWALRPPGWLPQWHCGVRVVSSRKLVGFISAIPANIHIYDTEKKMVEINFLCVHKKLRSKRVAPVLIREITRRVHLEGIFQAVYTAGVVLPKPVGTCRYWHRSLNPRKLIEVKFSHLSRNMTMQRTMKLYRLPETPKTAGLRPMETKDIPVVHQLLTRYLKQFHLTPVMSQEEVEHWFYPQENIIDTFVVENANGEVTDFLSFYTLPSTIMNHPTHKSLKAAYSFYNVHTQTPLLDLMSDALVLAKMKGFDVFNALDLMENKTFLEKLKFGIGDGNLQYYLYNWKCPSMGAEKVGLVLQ
Assay: NMT enzyme inhibition scintillation proximity assay, human NMT-1
Format: biochemical
Details: Human NMT-1; value in parentheses; read-out: IC50 (μM) NMT Enzyme (HuNMT-1)
# maps each entry to its log10(IC50)
ASSAY_READOUT: log10(IC50) (log10 of the value in µM)

COMPOUND	log10(IC50)
Cc1nn(C)c(C)c1N(CC(F)F)[S+](=O)([O-])c1c(Cl)cc(CCCN2CCN(C)CC2)cc1Cl	0.23
Cc1c(N[S+](=O)([O-])c2ccc(-c3cccc(CNC4CCCC4)c3)cc2)c(CC(C)C)nn1C	0.36
Cc1c(N[S+](=O)([O-])c2ccc(-c3cccc(CNCc4ccccc4)c3)cc2)c(CC(C)C)nn1C	0.60
Cc1nn(C)c(C)c1N(CC(F)(F)F)[S+](=O)([O-])C1=C(Cl)C=C(CCCN2CCCNCC2)CC1Cl (stereo not shown)	-0.68
Cc1c(N[S+](=O)([O-])c2ccc(-c3cccc(CNCCc4ccccc4)c3)cc2)c(CC(C)C)nn1C	0.36
Cc1nn(C)c(C)c1N(C(F)F)[S+](=O)([O-])c1c(Cl)cc(CCCCCCn2ccnc2)cc1Cl	0.04
Cc1nn(C)c(C)c1N(C(F)F)[S+](=O)([O-])c1c(Cl)cc(CCCCCCn2ccnc2C(C)C)cc1Cl	0.32
